# measurement notes: Binding affinity to P-gp assessed as increase in basal protein activity at 5 uM after 30 mins by spectrophotometry
In this section we review reported Activity values for a set of compounds.
Report the value in % with no unit label.

# compound, unit abbrev, reported value
rows = [
    ("O=C(O)c1cccc2c(=O)c3ccccc3n(CC(O)CN3CCCCC3)c12 (stereo not given)", "%", 144),
]

Ask: Activity for CC(C)N(CC(O)Cn1c2ccccc2c(=O)c2cccc(C(=O)O)c21)C(C)C (stereo not given) ?
Reply: 105

Ask: Try this compound too: O=C(O)c1cccc2c(=O)c3ccccc3n(CC(O)CN3CCOCC3)c12 (stereo not given)
Reply: 166

Ask: Try this compound too: O=C(O)c1cccc2c(=O)c3ccccc3n(CC(O)CN3CCCC3)c12 (stereo not given)
Reply: 100

Ask: Try this compound too: CCN(CC)CC(O)Cn1c2ccccc2c(=O)c2cccc(C(=O)O)c21 (stereo not given)
Reply: 112

====

# measurement notes: Binding affinity to P-gp at 0.5 uM after 30 mins by spectrophotometry
In this section we review reported RBA values for a set of compounds.
Reply with the value as a number alone.

Ask: RBA for CC(=O)[C@H]1CC[C@H]2[C@@H]3CCC4=CC(=O)CC[C@]4(C)[C@H]3CC[C@]12C ?
Reply: 1.11

Ask: Try this compound too: CC[C@]1(O)C[C@@H]2CN(CCc3c([nH]c4ccccc34)[C@@](C(=O)OC)(c3cc4c(cc3OC)N(C)[C@H]3[C@@](O)(C(=O)OC)[C@H](OC(C)=O)[C@]5(CC)C=CCN6CC[C@]43[C@@H]65)C2)C1
Reply: 1.37

Ask: Try this compound too: O=C(O)c1cccc2c(=O)c3ccccc3n(CC(O)CN3CCCCC3)c12 (stereo not drawn)
Reply: 1.66

====

# measurement notes: Binding affinity to P-gp assessed as increase in basal protein activity at 0.5 uM after 30 mins by spectrophotometry
property measured: Activity (%)
Report the value in % with no unit label.

Here is how some compounds turned out for Activity.
# compound, Activity / %
data = [
    ("CC(C)N(CC(O)Cn1c2ccccc2c(=O)c2cccc(C(=O)O)c21)C(C)C (stereo not given)", 60),
    ("O=C(O)c1cccc2c(=O)c3ccccc3n(CC(O)CN3CCCCC3)c12 (stereo not given)", 66),
    ("O=C(O)c1cccc2c(=O)c3ccccc3n(CC(O)CN3CCOCC3)c12 (stereo not given)", 100),
    ("CCN(CC)CC(O)Cn1c2ccccc2c(=O)c2cccc(C(=O)O)c21 (stereo not given)", 70),
]

Here's the next entry for you.
Ask: Activity for O=C(O)c1cccc2c(=O)c3ccccc3n(CC(O)CN3CCCC3)c12 (stereo not given) ?
Reply: 85

====

# measurement notes: Binding affinity to P-gp at 0.05 uM after 30 mins by spectrophotometry
In this section we review reported RBA values for a set of molecules.

Here is how some molecules turned out for RBA.
# molecule, RBA
rows = [
    ("O=C(O)c1cccc2c(=O)c3ccccc3n(CC(O)CN3CCOCC3)c12 (stereo not drawn)", 1.63),
    ("CC[C@]1(O)C[C@@H]2CN(CCc3c([nH]c4ccccc34)[C@@](C(=O)OC)(c3cc4c(cc3OC)N(C)[C@H]3[C@@](O)(C(=O)OC)[C@H](OC(C)=O)[C@]5(CC)C=CCN6CC[C@]43[C@@H]65)C2)C1", 0.98),
]

Ask: RBA for CCN(CC)CC(O)Cn1c2ccccc2c(=O)c2cccc(C(=O)O)c21 (stereo not drawn) ?
Reply: 1.65

====

# Tested on: ATP
# measurement notes: Binding affinity to ATP at 50 uM in HEPES buffer of pH 7.2 by spectrophotometry
Calls of active or inactive are those of the source. The rule behind the calls is not given here.
property measured: Ka

Here is how some compounds turned out for Ka.
# compound, tgt, Ka
measured = [
    ("O=c1c2ccccc2n(CC(O)CN2CCC(N3CCCCC3)CC2)c2c(Cl)cccc12 (stereo unspecified)", "ATP", "11 ×10⁵ /M"),
    ("CC(C)N(CC(O)Cn1c2ccccc2c(=O)c2cccc(Cl)c21)C(C)C (stereo unspecified)", "ATP", "1.42 ×10⁵ /M"),
    ("O=C(O)c1cccc2c(=O)c3ccccc3n(CC(O)CN3CCCCC3)c12 (stereo unspecified)", "ATP", "inactive"),
    ("O=c1c2ccccc2n(CC(O)CN2CCCC2)c2c(Cl)cccc12 (stereo unspecified)", "ATP", "6.57 ×10⁵ /M"),
    ("O=c1c2ccccc2n(CC(O)CN2CCOCC2)c2c(Cl)cccc12 (stereo unspecified)", "ATP", "4.08 ×10⁵ /M"),
]

Here's the next entry for you.
Ask: Ka for CCN(CC)CC(O)Cn1c2ccccc2c(=O)c2cccc(C(=O)O)c21 (stereo unspecified) ?
Reply: inactive

====

In this section we review reported MIC80 values for a set of molecules.
# Tested on: Candida albicans
# measurement notes: Antifungal activity at Candida albicans CAI4 after 48 hrs by ELISA
# Format: functional
# measurement context: CAI4, 48 h

Here is how some molecules turned out for MIC80.
# molecule, tgt, MIC80
rows = [
    ("O=c1c2ccccc2n(CC(O)CN2CCC(N3CCCCC3)CC2)c2c(Cl)cccc12 (configuration not stated)", "Candida albicans", "> 3000 µg/mL"),
    ("CCN(CC)CC(O)Cn1c2ccccc2c(=O)c2cccc(Cl)c21 (configuration not stated)", "Candida albicans", "1500 µg/mL"),
    ("CC(C)N(CC(O)Cn1c2ccccc2c(=O)c2cccc(Cl)c21)C(C)C (configuration not stated)", "Candida albicans", "> 3000 µg/mL"),
    ("O=C(O)c1cccc2c(=O)c3ccccc3n(CC(O)CN3CCCC3)c12 (configuration not stated)", "Candida albicans", "781 µg/mL"),
    ("O=c1c2ccccc2n(CC(O)CN2CCCC2)c2c(Cl)cccc12 (configuration not stated)", "Candida albicans", "> 3000 µg/mL"),
]

Ask: MIC80 for O=c1c2ccccc2n(CC(O)CN2CCCCC2)c2c(Cl)cccc12 (configuration not stated) ?
Reply: > 3000 µg/mL

Ask: Try this molecule too: O=c1c2ccccc2n(CC(O)CN2CCOCC2)c2c(Cl)cccc12 (configuration not stated)
Reply: > 3000 µg/mL

====

# measurement notes: Binding affinity to P-gp assessed as increase in basal protein activity at 0.05 uM after 30 mins by spectrophotometry
In this section we review reported Activity values for a set of molecules.
Report the value in % with no unit label.

# molecule, Activity, %
records = [
    ("CC(C)N(CC(O)Cn1c2ccccc2c(=O)c2cccc(C(=O)O)c21)C(C)C (stereo not given)", 53),
    ("O=C(O)c1cccc2c(=O)c3ccccc3n(CC(O)CN3CCOCC3)c12 (stereo not given)", 63),
    ("O=C(O)c1cccc2c(=O)c3ccccc3n(CC(O)CN3CCCCC3)c12 (stereo not given)", 57),
    ("O=C(O)c1cccc2c(=O)c3ccccc3n(CC(O)CN3CCCC3)c12 (stereo not given)", 60),
]

Ask: Activity for CCN(CC)CC(O)Cn1c2ccccc2c(=O)c2cccc(C(=O)O)c21 (stereo not given) ?
Reply: 65

====

# measurement notes: Binding affinity to P-gp at 5 uM after 30 mins by spectrophotometry
# Criterion met = RBA below 2 (exclusive); Criterion not met = RBA at/above 2

Worked examples, 5 compounds total:
# compound, label class
measured = [
    ("O=C(O)c1cccc2c(=O)c3ccccc3n(CC(O)CN3CCCCC3)c12 (stereo not drawn)", "Criterion not met"),
    ("CC(=O)[C@H]1CC[C@H]2[C@@H]3CCC4=CC(=O)CC[C@]4(C)[C@H]3CC[C@]12C", "Criterion met"),
    ("CC[C@]1(O)C[C@@H]2CN(CCc3c([nH]c4ccccc34)[C@@](C(=O)OC)(c3cc4c(cc3OC)N(C)[C@H]3[C@@](O)(C(=O)OC)[C@H](OC(C)=O)[C@]5(CC)C=CCN6CC[C@]43[C@@H]65)C2)C1", "Criterion met"),
    ("COc1ccc(CCN(C)CCCC(C#N)(c2ccc(OC)c(OC)c2)C(C)C)cc1OC (stereo not drawn)", "Criterion not met"),
    ("CCN(CC)CC(O)Cn1c2ccccc2c(=O)c2cccc(C(=O)O)c21 (stereo not drawn)", "Criterion not met"),
]

Next item in the queue.
Ask: Criterion: RBA strictly below 2. Is it met by O=C(O)c1cccc2c(=O)c3ccccc3n(CC(O)CN3CCOCC3)c12 (stereo not drawn) ?
Reply: Criterion not met

====

# measurement notes: Binding affinity to P-gp at 0.5 uM after 30 mins by spectrophotometry
property measured: RBA

Here is how some molecules turned out for RBA.
# molecule, reported value
data = [
    ("O=C(O)c1cccc2c(=O)c3ccccc3n(CC(O)CN3CCCC3)c12 (stereo not given)", 1.85),
    ("O=C(O)c1cccc2c(=O)c3ccccc3n(CC(O)CN3CCOCC3)c12 (stereo not given)", 2),
    ("CC(C)N(CC(O)Cn1c2ccccc2c(=O)c2cccc(C(=O)O)c21)C(C)C (stereo not given)", 1.6),
    ("CCN(CC)CC(O)Cn1c2ccccc2c(=O)c2cccc(C(=O)O)c21 (stereo not given)", 1.7),
]

Here's the next entry for you.
Ask: RBA for COc1ccc(CCN(C)CCCC(C#N)(c2ccc(OC)c(OC)c2)C(C)C)cc1OC (stereo not given) ?
Reply: 2.01
